# TARGET_UNDER_TEST: NocT G97S (Agrobacterium fabrum, UniProt P35120, G97S)
# Construct: Cloning of mature OccJ, NocT-G97S, OccJ-S91G, OccJ-N202D, LAO and LAO-Q122A; made in house; host or cells: E. coli BL21
# Sequence (P35120 26-283 G97S): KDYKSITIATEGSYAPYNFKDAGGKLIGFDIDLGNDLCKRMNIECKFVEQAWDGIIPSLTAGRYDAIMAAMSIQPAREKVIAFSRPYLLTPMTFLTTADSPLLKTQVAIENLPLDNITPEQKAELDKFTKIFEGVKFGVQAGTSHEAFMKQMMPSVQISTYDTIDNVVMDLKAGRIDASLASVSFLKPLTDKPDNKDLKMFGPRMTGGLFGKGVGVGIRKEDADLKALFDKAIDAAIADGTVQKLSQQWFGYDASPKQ
# Type: binding, Agrobacterium tumefaciens
# CONDITIONS: ITC, 20 °C
MEASUREMENT_NAME: pKd
pKd field: float, defined as -log10 of concentration (mol/L).

Give the reported value of pKd for this record: `C[C@@H](N[C@@H](CCCN=C(N)N)C(=O)O)C(=O)O`
4.28

* * *

Catalogue of Free enthalpy (ΔG) values
# TARGET_UNDER_TEST: NocT WT (Agrobacterium fabrum)
# Construct: Cloning of mature OccJ, NocT-G97S, OccJ-S91G, OccJ-N202D, LAO and LAO-Q122A; made in house
# Sequence (P35120 26-283): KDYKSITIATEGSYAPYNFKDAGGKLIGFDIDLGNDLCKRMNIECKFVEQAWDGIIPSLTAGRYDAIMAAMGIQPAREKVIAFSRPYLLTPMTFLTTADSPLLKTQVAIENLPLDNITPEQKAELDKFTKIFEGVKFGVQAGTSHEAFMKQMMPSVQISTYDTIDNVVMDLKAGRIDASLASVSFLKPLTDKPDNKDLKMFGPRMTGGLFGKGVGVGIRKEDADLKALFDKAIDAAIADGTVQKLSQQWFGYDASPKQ
# Assay type: binding, Agrobacterium tumefaciens
# CONDITIONS: ITC, 20 °C
# value in kcal/mol; strip the unit string

Check out these entries, answers already filled in.
C[C@@H](N[C@@H](CCCN)C(=O)O)C(=O)O [octopinic acid] : -7.175
NCCC[C@H](NCC(=O)O)C(=O)O [noroctopinic acid] : -6.21
N=C(N)NCCCC[C@H](NCC(=O)O)C(=O)O [homo-noroctopine] : -5.504

Proceed to the following item.
In one line, give reported Free enthalpy (ΔG) of the entry NC(N)=NCCC[C@H](NCC(=O)O)C(=O)O [noroctopine] .
-5.518

* * *

# TARGET_UNDER_TEST: OccJ WT (Agrobacterium tumefaciens, UniProt P0A4F8)
# Construct: The mature PBP OccJ (256 aa without the signal peptide) expression plasmid was obtained by cloning the occJ gene lacking the first twenty residues; hexahistidine (C); made in house; host or cells: E. coli BL21
# ASSAY_OVERVIEW: OccJ WT ligand binding, isothermal titration microcalorimetry
# CONDITIONS: ITC, 20 °C
# Experimental: Isothermal titration microcalorimetry experiments were performed with an ITC200 isothermal titration calorimeter from MicroCal (GE Healthcare). The experiments were carried out at 20 °C. Protein concentration in the microcalorimeter cell (0.2 mL) varied from 20 to 150 µM. Nineteen injections of 2 µL of ligand solution (amino acids, opines and octopine derivatives) at concentration ranging from 240 µM to 1.5 mM were performed at intervals of 180 s while stirring at 500 rpm. […]
Class YES: Enthalpy (ΔH) at least -4 kcal/mol. Class NO: Enthalpy (ΔH) below -4 kcal/mol.

Here are 5 molecules together with their reported answers.
C[C@@H](N[C@@H](CCCN=C(N)N)C(=O)O)C(=O)O : NO
N=C(N)NCCC[C@H](N)C(=O)O : NO
NCCCC[C@H](N)C(=O)O : NO
NCCC[C@H](N)C(=O)O : YES
CC(N[C@@H](Cc1cnc[nH]1)C(=O)O)C(=O)O (stereo partly shown) : YES

# next molecule below
Test whether the molecule `NCCC[C@H](NCC(=O)O)C(=O)O` records Enthalpy (ΔH) of -4 kcal/mol or higher.
NO

* * *

# TARGET_UNDER_TEST: OccJ WT (Agrobacterium tumefaciens, UniProt P0A4F8)
# Construct: The mature PBP OccJ (256 aa without the signal peptide) expression plasmid was obtained by cloning the occJ gene lacking the first twenty residues; hexahistidine (C); made in house; host or cells: E. coli BL21
# ASSAY_OVERVIEW: OccJ WT ligand binding, isothermal titration microcalorimetry
# CONDITIONS: ITC, 20 °C
MEASUREMENT_NAME: Entropy (ΔS) (cal/mol/deg)
Give the number; cal/mol/deg is assumed, so skip it.

Below: 2 compounds and their reported Entropy (ΔS).
N=C(N)NCCC[C@H](N)C(=O)O : 5.99
C[C@@H](N[C@@H](CCCN)C(=O)O)C(=O)O : 1.40

Moving on to the next compound.
Give the reported Entropy (ΔS) for this compound. CC(N[C@@H](Cc1cnc[nH]1)C(=O)O)C(=O)O (stereo partly drawn)
13
